tested on: Fibroblast; assay: Multiplex assay against human fibroblast; assay type: toxicity, cell-based; settings: 24 h, 10 µM, compound concentration 10 uM, replicate 2
Could you label it label 1 if measured Population Healthy Nuclei (%) is 50% or higher, and label 0 otherwise?

[
  {
    "compound": "CNc1nc(NCc2ccc(NS(C)(=O)=O)cc2Cl)cc(-c2ccccn2)n1",
    "discreteLabel": "label 1"
  },
  {
    "compound": "CCN(CC)CCCCNc1ncc2cc(-c3cc(OC)cc(OC)c3)c(NC(=O)NC(C)(C)C)nc2n1",
    "discreteLabel": "label 0"
  },
  {
    "compound": "COc1cc(-n2cnc3cc(-c4ccc(Cl)cc4)sc3c2=O)ccc1OCCN1CCCC1",
    "discreteLabel": "label 1"
  },
  {
    "compound": "CN1CCCC(n2nc(Cc3ccc(Cl)cc3)c3ccccc3c2=O)CC1.Cl (stereo not drawn) [AZELASTINE HYDROCHLORIDE]",
    "discreteLabel": "label 1"
  },
  {
    "compound": "COc1ncc(-c2ccc3nccc(-c4ccnnc4)c3c2)cc1NS(=O)(=O)c1ccc(F)cc1F",
    "discreteLabel": "label 0"
  },
  {
    "compound": "C=CC(=O)Nc1cccc(C(=O)Nc2ccc(Nc3cc(-c4[nH]c(SC)nc4C)ccn3)cc2)c1",
    "discreteLabel": "label 1"
  },
  {
    "compound": "CN1CCN(c2ccc(OC(F)(F)F)c(Nc3ncc4c(n3)-c3c(c(C(N)=O)nn3CCO)CC4)c2)CC1",
    "discreteLabel": "label 1"
  },
  {
    "compound": "Cc1c(-c2ccc(O)cc2)n(Cc2ccc(OCCN3CCCCCC3)cc2)c2ccc(O)cc12",
    "discreteLabel": "label 0"
  }
]
